The values you see were collected from patent US8933056B2.

Biological target: DP-IV (Sus scrofa (Pig), UniProt P22411)
Sequence (P22411 whole entry): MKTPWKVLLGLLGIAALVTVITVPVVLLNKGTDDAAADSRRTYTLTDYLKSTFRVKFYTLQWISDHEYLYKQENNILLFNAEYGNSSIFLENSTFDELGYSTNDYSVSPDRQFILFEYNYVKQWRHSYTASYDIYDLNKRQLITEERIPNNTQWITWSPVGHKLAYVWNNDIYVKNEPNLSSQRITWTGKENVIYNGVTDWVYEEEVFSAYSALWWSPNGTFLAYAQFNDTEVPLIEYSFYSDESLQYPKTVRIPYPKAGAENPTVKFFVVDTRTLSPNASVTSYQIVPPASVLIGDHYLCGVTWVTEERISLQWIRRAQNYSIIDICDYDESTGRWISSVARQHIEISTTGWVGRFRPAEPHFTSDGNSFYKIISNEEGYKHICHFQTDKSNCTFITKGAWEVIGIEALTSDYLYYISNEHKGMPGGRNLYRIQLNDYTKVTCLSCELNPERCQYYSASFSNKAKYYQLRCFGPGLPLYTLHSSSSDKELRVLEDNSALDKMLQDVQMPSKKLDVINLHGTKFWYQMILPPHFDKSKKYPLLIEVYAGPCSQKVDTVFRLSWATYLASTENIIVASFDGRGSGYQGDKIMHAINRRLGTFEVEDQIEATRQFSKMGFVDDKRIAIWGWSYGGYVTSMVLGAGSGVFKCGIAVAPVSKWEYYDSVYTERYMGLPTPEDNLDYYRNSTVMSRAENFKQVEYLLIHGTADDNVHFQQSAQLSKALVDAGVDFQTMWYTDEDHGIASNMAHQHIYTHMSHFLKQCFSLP
Assay: DPP IV inhibition: thioxamide v. oxoamide
Assay type: biochemical, porcine
Conditions: pH 8.0; read-out: IC50 (pH 8.0)
Protocol: The inhibitory activity of a compound may be tested easily. […] A compound is then screened for its ability to inhibit the protease activity of DP-IV with respect to a natural substrate. […] The reaction was initiated by the addition of enzyme and reaction rates were measured at 25 C; formation of reaction product (para-nitroanilide) in the presence and absence of a test compound can be detected photometrically, e.g., at 410 nm.
PARAMETER: IC50 (µM)

Example entries and their recorded answers appear below.
OB(O)[C@@H]1CCCN1C(=S)[C@@H]1CCCN1 [Pro-boroPro Thioxamide]    7
N[C@@H](Cc1c[nH]c2ccccc12)C(=S)N1CCC[C@H]1B(O)O [Trp-boroPro Thioxamide]    0.7

A = C[C@H](NC(=S)[C@H](C)N)B(O)O [Ala-boroAla Thioxamide]
B = NCC(=S)N1CCC[C@H]1B(O)O [Gly-boroPro Thioxamide]
Field: lower IC50 | Options: A / B Write the label of whichever entry you select.
B
